- Test system: MCF7
- Experimental Details: Antiproliferative activity against human MCF7 cells assessed as cell growth inhibition after 72 hrs by sulforhodamine B assay
- Assay type: functional, cell-based
- Conditions Used: MCF7, 72 h
Value Kind: IC50

Reference set (5 entries):
C=C(C)[C@@H]1CC[C@]2(C(=O)O)CC[C@]3(C)[C@H](CC[C@@H]4[C@@]5(C)CC[C@@](O)(C(F)(F)F)C(C)(C)[C@@H]5CC[C@]43C)[C@@H]12	7.8 µM
C=C(C)[C@@H]1CC[C@]2(C(=O)OCc3ccc(Cl)cc3)CC[C@]3(C)[C@H](CC[C@@H]4[C@@]5(C)C[C@H](F)C(=O)C(C)(C)[C@@H]5CC[C@]43C)[C@@H]12	> 40 µM
C=C(C)[C@@H]1CC[C@]2(C(=O)O)CC[C@]3(C)[C@H](CC[C@@H]4[C@@]5(C)CC[C@H](O)C(C)(C)[C@@H]5CC[C@]43C)[C@@H]12	> 40 µM
C=C(C)[C@@H]1CC[C@]2(C(=O)OCc3ccc(Cl)cc3)CC[C@]3(C)[C@H](CC[C@@H]4[C@@]5(C)CCC(=O)C(C)(C)[C@@H]5CC[C@]43C)[C@@H]12	> 40 µM
C=C(C)[C@@H]1CC[C@]2(C(=O)OC)CC[C@]3(C)[C@H](CC[C@@H]4[C@@]5(C)CC(F)C(=O)C(C)(C)[C@@H]5CC[C@]43C)[C@@H]12 (stereo not given in full)	> 10 µM

Sample C=C(C)[C@@H]1CC[C@]2(C(=O)OC)CC[C@]3(C)[C@H](CC[C@@H]4[C@@]5(C)CC(F)[C@H](O)C(C)(C)[C@@H]5CC[C@]43C)[C@@H]12 (mixture of isomers) — what was its IC50?
> 10 µM

Sample "C=C(C)[C@@H]1CC[C@]2(C(=O)OCc3ccc(Cl)cc3)CC[C@]3(C)[C@H](CC[C@@H]4[C@@]5(C)C[C@@H](F)C(=O)C(C)(C)[C@@H]5CC[C@]43C)[C@@H]12" — what was its IC50?
> 40 µM

Sample "C=C(C)[C@@H]1CC[C@]2(C(=O)OC)CC[C@]3(C)[C@H](CC[C@@H]4[C@@]5(C)CC[C@@](O)(C(F)(F)F)C(C)(C)[C@@H]5CC[C@]43C)[C@@H]12" — what was its IC50?
> 10 µM

Sample "C=C(C)[C@@H]1CC[C@]2(C(=O)OCc3ccc(Cl)cc3)CC[C@]3(C)[C@H](CC[C@@H]4[C@@]5(C)CC[C@@](O)(C(F)(F)F)C(C)(C)[C@@H]5CC[C@]43C)[C@@H]12" — what was its IC50?
> 40 µM

Sample C=C(C)[C@@H]1CC[C@]2(C(=O)OC)CC[C@]3(C)[C@H](CC[C@@H]4[C@@]5(C)CC(F)[C@H](OC(=O)CC(C)(C)C(=O)O)C(C)(C)[C@@H]5CC[C@]43C)[C@@H]12 (stereo not given in full) — what was its IC50?
> 10 µM

---

- Tested on: KB
- Experimental Details: Antiproliferative activity against human KB cells assessed as cell growth inhibition after 72 hrs by sulforhodamine B assay
- Type: functional, cell-based
Value Kind: IC50

C=C(C)[C@@H]1CC[C@]2(C(=O)OC)CC[C@]3(C)[C@H](CC[C@@H]4[C@@]5(C)CC[C@@](O)(C(F)(F)F)C(C)(C)[C@@H]5CC[C@]43C)[C@@H]12	> 10 µM
C=C(C)[C@@H]1CC[C@]2(C(=O)OC)CC[C@]3(C)[C@H](CC[C@@H]4[C@@]5(C)CC(F)[C@H](OC(=O)CC(C)(C)C(=O)O)C(C)(C)[C@@H]5CC[C@]43C)[C@@H]12 (stereo not given in full)	> 10 µM
C=C(C)[C@@H]1CC[C@]2(C(=O)OCc3ccc(Cl)cc3)CC[C@]3(C)[C@H](CC[C@@H]4[C@@]5(C)C[C@H](F)C(=O)C(C)(C)[C@@H]5CC[C@]43C)[C@@H]12	> 40 µM
C=C(C)[C@@H]1CC[C@]2(C(=O)OC)CC[C@]3(C)[C@H](CC[C@@H]4[C@@]5(C)CC(F)C(=O)C(C)(C)[C@@H]5CC[C@]43C)[C@@H]12 (stereo not given in full)	> 10 µM
C=C(C)[C@@H]1CC[C@]2(C(=O)O)CC[C@]3(C)[C@H](CC[C@@H]4[C@@]5(C)CC(F)[C@H](OC(=O)CC(C)(C)C(=O)O)C(C)(C)[C@@H]5CC[C@]43C)[C@@H]12 (stereo not given in full)	> 10 µM
C=C(C)[C@@H]1CC[C@]2(C(=O)OCc3ccc(Cl)cc3)CC[C@]3(C)[C@H](CC[C@@H]4[C@@]5(C)CC[C@@](O)(C(F)(F)F)C(C)(C)[C@@H]5CC[C@]43C)[C@@H]12	> 40 µM

Sample C=C(C)[C@@H]1CC[C@]2(C(=O)OC)CC[C@]3(C)[C@H](CC[C@@H]4[C@@]5(C)CC(F)[C@H](O)C(C)(C)[C@@H]5CC[C@]43C)[C@@H]12 (mixture of isomers) — what was its IC50?
> 10 µM

Sample "C=C(C)[C@@H]1CC[C@]2(C(=O)OCc3ccc(Cl)cc3)CC[C@]3(C)[C@H](CC[C@@H]4[C@@]5(C)CCC(=O)C(C)(C)[C@@H]5CC[C@]43C)[C@@H]12" — what was its IC50?
> 40 µM

Sample C=C(C)[C@@H]1CC[C@]2(C(=O)O)CC[C@]3(C)[C@H](CC[C@@H]4[C@@]5(C)CC(F)[C@H](O)C(C)(C)[C@@H]5CC[C@]43C)[C@@H]12 (mixture of isomers) — what was its IC50?
6.5 µM

Sample "C=C(C)[C@@H]1CC[C@]2(C(=O)O)CC[C@]3(C)[C@H](CC[C@@H]4[C@@]5(C)C[C@H](F)[C@H](O)C(C)(C)[C@@H]5CC[C@]43C)[C@@H]12" — what was its IC50?
6.1 µM
